Consider the following binders; for each one, report its pKd.
assayed_target: T1, dNELF-E(mut) (Drosophila, UniProt P92204 1-280, N173E;K174D;V175M;E177P;D178T;F179L)
T1 sequence: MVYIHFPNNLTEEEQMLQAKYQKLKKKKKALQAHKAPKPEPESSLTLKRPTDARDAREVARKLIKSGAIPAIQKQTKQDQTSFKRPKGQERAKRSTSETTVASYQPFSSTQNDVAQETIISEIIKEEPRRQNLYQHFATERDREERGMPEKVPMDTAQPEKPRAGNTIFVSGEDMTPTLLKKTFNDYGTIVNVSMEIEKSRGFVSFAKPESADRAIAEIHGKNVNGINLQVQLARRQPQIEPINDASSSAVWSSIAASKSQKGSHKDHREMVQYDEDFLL
procedure_text: F-EMSA; 10 mM HEPES-NaOH pH 7.5, 100 mM NaCl, 25 mM KCl, 1 mM MgCl2, 0.02% Tween-20, 0.01% IGEPAL CA-630, 10 µg/ml yeast tRNA; 2 nM RNA, 0-2000 nM protein, 1-2 h, binding temperature not stated; gel 5% acrylamide 0.5X TBE at 4 °C
conditions: protein: recombinant; tags: N-terminal His6 (pHIS-parallel1); label: 3' fluorescein (5-thiosemicarbazide); hairpin with UCU bulge
Kindly note that pKd refers to -log10 of the concentration in mol/L and answer with the value alone.

In: Which measured pKd value corresponds to HIV-1 TAR+A (structured_RNA) RNA: GGUCUCUCUGGUUAGACCAGAUCUGAGCCUGAGGAGCUCUCUGGCUAACUAGGGAACC ?
Out: 6.55

In: Would you kindly share the measured pKd for HIV-1 TAR (structured_RNA) RNA: GGUCUCUCUGGUUAGACCAGAUCUGAGCCUGGGAGCUCUCUGGCUAACUAGGGAACC ?
Out: 6.57
